Test system: TK-10 renal
Assay: NCI-60 one-dose screen, 48 h (100 = growth as untreated, 0 = no growth, -100 = all killed)
Conditions: 10 µM unless noted
Experimental: Growth inhibition of the TK-10 human tumor cell line is measured as a screen for anti-cancer activity. Cells are grown in 96 well plates and exposed to the test compound for 48 hours. Compounds are tested at a single concentration, which is 10^-5 M for most compounds. The reported endpoint is percent growth (GI% or GIPRCNT), where numbers from 0 - 100% represent growth inhibition, and numbers from -100% - 0 represent cell death. For example, a value of 40 represents 60% growth inhibition. […]
Compounds without any hit were thinned out: in the full panel of roughly 83,000, 20% have a hit. The source made the active and inactive calls. How the source made its calls: active means growth percent below 10; inactive means the rest.
ENDPOINT_NAME: growth

# query: growth | item C/C(=C(/c1ccc(O)cc1)c1ccc(OCCN2CCCC2)cc1)c1ccc(Cl)cc1 | system: TK-10 renal
84.5% (inactive)

Find growth (TK-10 renal) for the entry NCCN1CCN(c2nc(-c3ccccc3)nc3nc(-c4ccccc4)oc23)CC1
-28.7% (active)

Lab request: please report growth under test system TK-10 renal for CCc1ccc(NC(=O)N[C@@H](Cc2cccc(F)c2)C(=O)N[C@@H]2C(=O)N3CCC[C@H]3C(=O)N3CCCC[C@H]3C(=O)N[C@@H](CO)C(=O)N3C[C@H](C)C[C@H]3C(=O)O[C@H]2C)c(F)c1
61.1% (inactive)

# get_value(readout= growth, system= TK-10 renal) for O=C(NNc1nc2cc(F)c(F)cc2n2cccc12)c1cccnn1
39.5% (inactive)

What reported growth corresponds to O=S(=O)(Nc1cc(Cl)c(F)c(Cl)c1)c1ccc(-c2cnc(C3CC3)o2)cc1 on TK-10 renal?
72.5% (inactive)

Any idea what growth came out for C=C(C)[C@@H]1CC[C@]2(C)[C@H](CC=C3[C@@H]4CC(C)(C)CC[C@]4(C(=O)NCC#CCN4CCN(C)CC4)CC[C@]32C)[C@@]1(C)CCC#N on TK-10 renal?
83.9% (inactive)

Lookup: growth / TK-10 renal / C#C[C@]1(O)CC[C@H]2[C@@H]3CC=C4c5sc(C6CCOCC6)nc5CC[C@]4(C)[C@H]3CC[C@@]21C
113% (inactive)

What growth appears in the records for this compound with TK-10 renal? CC(=O)Nc1ccc(NC(=O)Nc2cccc(-c3nc(-c4ccc(NC(=O)c5cccs5)cc4Cl)no3)c2)cc1C(F)(F)F
-32.7% (active)

* * *

Please go through the items and note down their growth.
Tested on: SK-OV-3 ovarian
Assay: NCI-60 one-dose screen, 48 h (100 = growth as untreated, 0 = no growth, -100 = all killed)
Conditions: 10 µM unless noted
This is part of a sample that, as a whole, favours compounds with a hit. Of some 83,000 tested, about 20% had one in any assay.
Number only, in %; omit the unit.

Query growth on SK-OV-3 ovarian for CN1C(=O)N(C)C2C1NN=c1s/c(=C\c3ccccn3)c(=O)n12 (centres undefined)
110

Reported growth for SK-OV-3 ovarian, given CCn1c2ccc(/C=N/NS(=O)(=O)CCN(C)C)cc2c2cc(/C=N/NS(=O)(=O)CCN(C)C)ccc21 ?
104

Record COc1cc(C2CC(c3ccc(Nc4nc(NCCO)nc(Nc5ccc(Cl)cc5)n4)cc3)=Nc3c(N)nc(N)nc3N2)cc(OC)c1OC (centres undefined) : what is its growth with SK-OV-3 ovarian?
125

Tell me reported growth for CC(c1ccccc1)N1C(=O)/C(=C/c2csc(C#N)n2)SC1=S (centres undefined) , tested with SK-OV-3 ovarian.
108

Param readout= growth; system= SK-OV-3 ovarian; entry= CCCCCCNC(=O)Oc1ccc(/C(=C(\C)c2ccc(Cl)cc2)c2ccc(OCCN(C)C)cc2)cc1 ; returns value.
94.4

Recall the recorded growth for COc1cc(C(=O)C[n+]2ccc3ccccc3c2)cc(OC)c1OC with SK-OV-3 ovarian and state it.
97.1

Lab note: need growth for O=S(=O)(Nc1ccc2c(c1)OC(F)(F)O2)c1ccc(-c2cnc(C3CC3)o2)cc1 on SK-OV-3 ovarian, anyone have it?
65.6

Query growth on SK-OV-3 ovarian for Oc1ccc(-c2nnc(SCc3ccc(O)c4ncccc34)n2-c2ccccc2)cc1
18.7

Query for SK-OV-3 ovarian: what growth does the record show for COc1cccc(/C=C/C(=O)c2ccc(NC(=O)COc3cccc4cccnc34)cc2)c1 ?
104

The reported numbers originate from PubChem BioAssay (NCI).
